For each entry below, report its pKi value.
Target: UniProtKB P28573
Sequence (P28573 1-637): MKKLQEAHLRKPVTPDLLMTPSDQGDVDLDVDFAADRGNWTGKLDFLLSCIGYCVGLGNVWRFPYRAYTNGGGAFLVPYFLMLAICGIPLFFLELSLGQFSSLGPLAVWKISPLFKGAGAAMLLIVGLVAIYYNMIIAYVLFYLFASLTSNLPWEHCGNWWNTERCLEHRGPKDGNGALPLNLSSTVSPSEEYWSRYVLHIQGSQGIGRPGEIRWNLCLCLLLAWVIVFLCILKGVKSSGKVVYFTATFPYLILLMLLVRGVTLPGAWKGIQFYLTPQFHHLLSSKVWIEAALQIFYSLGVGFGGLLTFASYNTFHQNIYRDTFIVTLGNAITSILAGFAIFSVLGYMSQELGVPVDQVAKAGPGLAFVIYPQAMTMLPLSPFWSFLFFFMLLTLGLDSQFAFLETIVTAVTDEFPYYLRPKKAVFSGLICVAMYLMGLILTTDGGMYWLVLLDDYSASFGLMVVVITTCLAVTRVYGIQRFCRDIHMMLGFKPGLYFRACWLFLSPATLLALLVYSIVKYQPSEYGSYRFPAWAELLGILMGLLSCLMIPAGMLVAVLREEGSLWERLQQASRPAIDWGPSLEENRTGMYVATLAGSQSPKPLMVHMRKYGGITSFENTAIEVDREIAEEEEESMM
Experiment: cell-based
Conditions: read-out: Ki (inhibition of proline uptake)
Units for pKi: none; it is -log10 of a concentration expressed in mol/L.

Exercise: Entry CNCC(=O)O [Sarcosine] needs its pKi filled in; supply it.
Solution: 4.52

Exercise: Entry O=C(O)[C@@H]1CCN1 [L-Azetidine-2-carboxylic acid] needs its pKi filled in; supply it.
Solution: 3.94
